target: MTS 5A (synthetic, UniProt P08047); assay: EMSA; conditions: tags: MBP fusion (pMal-c2), SP1 backbone
Sequence (P08047 other isoform, or with tags, fused parts or gaps): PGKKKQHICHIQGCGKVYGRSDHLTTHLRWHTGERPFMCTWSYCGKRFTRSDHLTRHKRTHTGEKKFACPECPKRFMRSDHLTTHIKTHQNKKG
measurementLabel: pKd
Notebook: values listed as pKd are -log10 of the concentration (mol/L).

Using known records, supply pKd for MTS 5A target (dsDNA) DNA 1: TGGGGGTGG DNA 2: CCACCCCCA 10.15
